Here we list compounds with their recorded GI50 when tested on MDA-MB-435.
measure: GI50

- O=C(O)[C@@H](Cc1ccc2ccccc2c1)NC(=O)n1c2ccccc2c2ccccc21: 1.09 µM
- Cc1ccc(NC(=O)c2cc(S(=O)(=O)N3C(=O)NC(=O)NS3(=O)=O)c(S)cc2Cl)cc1: 17.1 µM
- O=C1CCCCN1CCCCC#Cc1cccc(C#Cc2cccnc2)c1: 28.9 µM
- O=S(=O)(NCCCNc1nccc(-c2c(-c3ccc(F)cc3)nc3sccn23)n1)c1ccc2ccccc2c1: 3.67 µM
- N#Cc1ccc(NC(=O)C(CC(=O)OCc2ccccc2)NC(=O)OCc2ccccc2)cc1 (stereo not drawn): > 100 µM
- C[C@H]1CCCC(O)C(O)[C@@H]2C[C@H](O[Si](C)(C)C(C)(C)C)C[C@H]2[C@H](O[Si](C)(C)C(C)(C)C)C(O)C(O)C(=O)O1 (stereo partly drawn): > 100 µM
- COC(=O)C1(C)Cc2cc(OC(C)=O)c(OC(C)=O)cc2N1 (stereo not drawn): 6.29 µM
- CN(C)C(=O)O[C@H]1CN[C@H](C#Cc2cc3ncnc(Nc4ccc(OCc5cccc(F)c5)c(Cl)c4)c3s2)C1: > 25 µM

FYI, the data here is from PubChem BioAssay (NCI).
